molecular target: rNav1.2a (Rattus norvegicus, UniProt P04775); test: Whole-cell recording of peak sodium current, inhibition by Lamotrigine, classical brain type rNav1.2a; details: physiological saline, stimulation every 5 second, step from holding potential (e.g. −90 mV) to −10 mV
Measured metric: pIC50
Entry type: numeric. Quantity: pIC50, the -log10 of concentration in molar units.

**Query** Give the reported pIC50 for Nc1nnc(-c2cccc(Cl)c2Cl)c(N)n1 (system: rNav1.2a (Rattus norvegicus, UniProt P04775)).
**Result** 3.30

====

biological target: rNav1.5a (Rattus norvegicus); construct: the Sodium Channel Expressed Endogenously in HiB5 Cells (rNav1.5a); endogenous in cells; assay: Whole-cell recording of peak sodium current, inhibition by Lamotrigine, sodium channel expressed endogenously in HiB5 cells (rNav1.5a); settings: HiB5 cells, whole-cell recording, physiological saline, stimulation every 5 second, step from holding potential (e.g. −90 mV) to −10 mV
Sequence (P15389 1-1966 isoform P15389-2): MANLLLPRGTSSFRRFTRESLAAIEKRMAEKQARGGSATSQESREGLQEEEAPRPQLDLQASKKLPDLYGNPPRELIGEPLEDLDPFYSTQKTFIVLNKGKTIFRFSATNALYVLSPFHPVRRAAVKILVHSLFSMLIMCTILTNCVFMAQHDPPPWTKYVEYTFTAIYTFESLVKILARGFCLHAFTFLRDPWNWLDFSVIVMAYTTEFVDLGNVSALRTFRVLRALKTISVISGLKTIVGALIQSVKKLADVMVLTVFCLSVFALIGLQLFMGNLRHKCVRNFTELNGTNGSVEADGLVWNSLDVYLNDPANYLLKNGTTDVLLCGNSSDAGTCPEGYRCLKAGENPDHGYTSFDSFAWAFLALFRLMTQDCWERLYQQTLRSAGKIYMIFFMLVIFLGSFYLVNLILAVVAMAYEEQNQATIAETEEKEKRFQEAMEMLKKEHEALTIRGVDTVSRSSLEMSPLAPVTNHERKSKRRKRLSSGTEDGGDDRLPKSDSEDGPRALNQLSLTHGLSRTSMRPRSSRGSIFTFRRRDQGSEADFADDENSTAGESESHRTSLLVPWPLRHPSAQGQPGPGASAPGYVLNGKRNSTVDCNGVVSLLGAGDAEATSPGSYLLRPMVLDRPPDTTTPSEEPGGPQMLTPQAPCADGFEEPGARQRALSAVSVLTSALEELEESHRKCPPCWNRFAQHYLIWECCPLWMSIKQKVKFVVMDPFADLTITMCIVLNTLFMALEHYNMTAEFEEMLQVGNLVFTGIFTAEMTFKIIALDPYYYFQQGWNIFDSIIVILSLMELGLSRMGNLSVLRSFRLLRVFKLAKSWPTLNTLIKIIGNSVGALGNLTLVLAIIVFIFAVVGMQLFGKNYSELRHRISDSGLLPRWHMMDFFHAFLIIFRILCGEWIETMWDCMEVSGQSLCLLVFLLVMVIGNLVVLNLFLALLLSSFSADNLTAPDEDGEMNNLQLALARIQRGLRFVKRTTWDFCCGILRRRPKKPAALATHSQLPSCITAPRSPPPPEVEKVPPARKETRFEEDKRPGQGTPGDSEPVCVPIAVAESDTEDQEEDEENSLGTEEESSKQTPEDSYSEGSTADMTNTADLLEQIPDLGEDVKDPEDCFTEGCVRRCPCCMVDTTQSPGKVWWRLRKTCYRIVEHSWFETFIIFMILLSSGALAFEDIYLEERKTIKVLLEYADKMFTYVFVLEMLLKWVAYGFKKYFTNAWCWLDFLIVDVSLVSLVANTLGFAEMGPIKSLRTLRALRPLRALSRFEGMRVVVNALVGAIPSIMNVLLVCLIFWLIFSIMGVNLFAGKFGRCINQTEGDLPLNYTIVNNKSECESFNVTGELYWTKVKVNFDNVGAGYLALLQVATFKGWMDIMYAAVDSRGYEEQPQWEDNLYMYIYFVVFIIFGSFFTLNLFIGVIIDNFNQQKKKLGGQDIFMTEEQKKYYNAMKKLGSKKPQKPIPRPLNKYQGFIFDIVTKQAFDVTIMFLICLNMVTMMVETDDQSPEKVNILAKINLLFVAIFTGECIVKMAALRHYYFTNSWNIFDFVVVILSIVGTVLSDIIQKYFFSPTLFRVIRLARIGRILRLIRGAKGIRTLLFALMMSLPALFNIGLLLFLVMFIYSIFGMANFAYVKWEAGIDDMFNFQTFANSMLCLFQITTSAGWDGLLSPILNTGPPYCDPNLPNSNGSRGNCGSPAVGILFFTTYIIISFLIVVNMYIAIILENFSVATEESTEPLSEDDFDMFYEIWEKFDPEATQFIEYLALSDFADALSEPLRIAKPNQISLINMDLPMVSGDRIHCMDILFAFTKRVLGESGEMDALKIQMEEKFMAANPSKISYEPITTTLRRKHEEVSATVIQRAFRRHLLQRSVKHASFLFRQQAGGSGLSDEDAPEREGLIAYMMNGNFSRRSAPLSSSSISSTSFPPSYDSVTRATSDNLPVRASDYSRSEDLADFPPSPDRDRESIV
Measured metric: IC50
# number then unit; no other words

**Query** I am curious: what IC50 value has been reported for Nc1nnc(-c2cccc(Cl)c2Cl)c(N)n1 ?
**Result** 20 µM
